Examples of binders with documented Kd follow.
Biological target: T1, human complement factor D purified from serum (human, UniProt P00746 26-253)
T1 construct: serum-purified (CompTech); also called hCFD-Comptech; CFD
T1 sequence (P00746 26-253): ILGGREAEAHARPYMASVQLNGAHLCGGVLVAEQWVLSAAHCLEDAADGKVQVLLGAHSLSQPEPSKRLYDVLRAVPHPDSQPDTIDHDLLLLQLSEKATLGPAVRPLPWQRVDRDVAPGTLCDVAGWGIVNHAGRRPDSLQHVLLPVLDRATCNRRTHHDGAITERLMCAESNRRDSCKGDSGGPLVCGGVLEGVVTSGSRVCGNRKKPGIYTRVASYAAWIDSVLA
Experiment: SPR MX96
// units = nM; emit number, no label

Sample records with Kd:
| binder | assay metric | unit spec | numeric result |
| --- | --- | --- | --- |
| KCD004 (antibody, V domains shown, also called OG2063) VH: EVQLQQSGAELVRPGSSVKMSCKTSGKTFTSHGINWVKQRPGQGLEWIGYIYIGNGYNEYNEKFKGKATLTSDTSSSTAYMQLSSLTFEDSAIYFCVRKAYGNYGFDDWGQGTTLTVSS VL: DIQMTQSPTSLSASLGESVSLTCRASQEISGYLNWLQQKPDGSIKRLIYAASTLDSGVPKRFSGSRSGSDYSLTISSLESEDFADYYCLQYANYPFTFGSGTKLEVK | Kd | nM | 0.35 |
| KCD065 (antibody, V domains shown) VH: QVQLQQSGAELARPGASVKMSCKASGYTFTTYTIHWVKQRPGQGLEWIGYINPSSDFTNYNQNFADKATLTADRSSSTAYMQLSSLTSEESAVYYCAIRLGYDRQGWYFDVWGAGTTVTVSS VL: DIVMTQSHKFLSTSLGDRVSITCKASQDVGSAVAWYQQKPGQSPDLLIYWTFTRHTGVPDRFTGSRSGTDFTLTISNVQSGDLADYFCQQYSNYPLTFGGGTKLEIK | Kd | nM | 3.3 |
| KCD015 (antibody, V domains shown) VH: EVQLQQSGAELVKPGASVKLSCTASGFNIKDTYMHWVKQRPEQGLEWIGRIDPANGYTEYDPKFQGKATITADTSSNTAYLQLSSLTSEDSAAYYCTSAMEFWGQGTSVTVSS VL: QIVLTQSPAILSASPGEKVTMTCSASSSVSYIYWYQQKPRSSPRLLIYDTSNLASGVPVRFSGSGSGTSYSLTISRMEAEDAATYYCQQWSSYPFTFGGGTKLEVK | Kd | nM | 6.2 |
| KCD040 (antibody, V domains shown, chimeric) VH: EVQLQQSGAELVKPGASVKLSCTASDFNIKDTYMHWVMQRPEQGLEWIGKIDPANGNTEFDPKFQGKATITADTSSNTAYLQLTSLTSEDTAVYYCTRAMDYWGQGTSVTVSS VL: QIVLTQSPAIMSASPGEKVTMTCSAGSSVSYMYWYQQKPGSSPRVLIYDTSNLASGVPVRFSGSGSGTSYSLTISRMEAEDAATYYCQQWSNYPYTFGGGTKLEIK | Kd | nM | 1.9 |

Consider the record given below.
Look up Kd for this binder: KCD103 (antibody, V domains shown, chimeric) VH: QVQLQQPGAELVRPGTSVKLSCKASGYTFTSYWMHWVKQRPGQGLEWIGVIDPSDSYTKYNQKFKDKATLTVETSSSTAYMQLSSLTSEDSAVYYCAGNGYDGSMDYWGQGTSVTVSS VL: DIQMTQTTSSLSASLGDRVTISCRASQDISNSLNWYQQKPDGTVKLLIYYTSRLHSRVPSRFSGSGSGTDYSLTISNLDQEDIATYFCQQANTLPYTFGGGTKLEIK
4.4
